# TARGET_SYSTEM: DRB1*0405 (Homo sapiens, UniProt P01903+P01911, A100R/A169T/D86S/F76Y/I96L/K127E/L162R/M171V/N62H/P40V/Q125Y/R42H/S133A/S149N/S66Y/V115G/V209L/W38E)
# ASSAY_METHOD_TEXT: biochemical
# Type: binding
No end group written: not given here.
I'd appreciate it if you could supply log10 of IC50 values for the items below.
Heads up: the numbers are on a log10 scale; they represent IC50 in nM.

Use the examples below as a reference point.
{"columns": ["CONSTRUCT_SEQUENCE", "log10 of IC50"],
 "data": [
  ["LSHVKIPVVYRLVWD [Peptide 90.0020]", 2.72],
  ["RGIIILLLIRFRCSK [Peptide 89.0063]", 2.38],
  ["ISEVMGDTPEWIQRL [Peptide 90.0052]", 3.61]
]}

Quick batch: log10 of IC50 for everything below.
1. QAELETAQALFHAQE [Peptide 89.0022]
2. FAGIVTKLPTANNTT [Peptide 89.0175]

2.77
3.77

====

Exercise: state measured pIC50 for each of the sequences provided.
# TARGET_SYSTEM: A*3301 (Homo sapiens, UniProt P04439, A270S/D185E/E176V/E277Q/E87N/F33T/G231S/H175R/I121M/I218V/I322F/K168Q/K210R/L300P/L318F/M331R/P217A/Q86R/Q94H/R138Q/T323A/T345S/T97I/V358M/Y195H)
# ASSAY_METHOD_TEXT: biochemical
# Type: binding
pIC50: −log10 of the molar value. No end group written: not given here.

{"columns": ["CONSTRUCT_SEQUENCE", "OBSERVED_VALUE"],
 "data": [
  ["GQGVSIEWRK [Peptide 9017.0219]", "< 4.70"],
  ["LLRAVRIIK [Peptide 9017.0069]", "< 4.70"],
  ["ILTAFNSSHK [Peptide 1589.03]", "< 4.70"],
  ["SSLARRHMAR [Peptide 9017.0193]", 6.72]
]}

Your task in this section: give pIC50 for each listed record.
1. SVICFVNSK [Peptide 1587.15]
2. YLTAPTGCLK [Peptide 1589.15]
3. VFADLRIVYR [Peptide 78.0073]

1: 5.55; 2: < 4.70; 3: 7.28

I need pIC50 for every entry listed below, if you could help.
1. TTTYSPALNK [Peptide 1556.41]
2. NVCVSWKYK [Peptide 88.0383]
3. LTSQIEHWK [Peptide 88.0439]
4. LLLIRFRCSK [Peptide 88.0164]
5. LTARNVLVK [Peptide 9012.0213]

< 4.70
5.61
< 4.70
< 4.70
< 4.70

Hi there! I need pIC50 for each item below, if you can.
1. RINTWKSLVK [Peptide 9017.0215]
2. VVPALSVSK [Peptide 1589.14]

["< 4.70", "< 4.70"]

====

# TARGET_SYSTEM: A2.1 HLA molecules (Homo sapiens, UniProt P04439, D140Y/D185E/D98H/E176V/E277Q/G131W/G231S/I119V/I121R/I166T/I218V/L300P/L318F/N151K/N90K/P208A/P217A/Q86G/Q94H/R138H/R169H/T345S)
# Format: binding
# strict inequality: A2.1 relative binding (ratio of binding of test peptide relative to standard peptide) < 0.03 yields condition met, everything else yields condition not met

Field: example entries. Status: answers known.
{"columns": ["CONSTRUCT_SEQUENCE", "GROUP"],
 "data": [
  ["YMLDLQPEV", "condition not met"],
  ["LVLGTLEEV", "condition not met"],
  ["YMFLWGPRV", "condition not met"],
  ["LLGDNQIMP", "condition met"],
  ["YLPSALNPV", "condition not met"]
]}

Problem: For the sequence RMLTIPQSV , is A2.1 relative binding (ratio of binding of test peptide relative to standard peptide) under 0.03? condition not met

Consider the sequence YLHTLWKAGV . Is its A2.1 relative binding (ratio of binding of test peptide relative to standard peptide) strictly less than 0.03? condition not met

Item RVSWPKFAV : A2.1 relative binding (ratio of binding of test peptide relative to standard peptide) beneath 0.03, strictly? condition met

A record lists AMGLVCVQV . Is its A2.1 relative binding (ratio of binding of test peptide relative to standard peptide) below 0.03? condition met

====

For each of the sequences below, state its pIC50.
# TARGET_SYSTEM: DR1 (DRB1*0101) (Homo sapiens, UniProt P01903+P01911, A100R/D57E/F55L/F60I/F76Y/I96L/L162R/M171V/P40L/Q125E/R42F/V115G/Y59C)
# ASSAY_METHOD_TEXT: biochemical
# Type: binding
No end group written: not given here.
Give bare numbers, as −log10 of the molar value.

{"columns": ["CONSTRUCT_SEQUENCE", "OBSERVED_VALUE"],
 "data": [
  ["EDLRTLQQLFLSTLS [Peptide 1543.21]", 7.70]
]}

Dear colleague, could you send me pIC50 for each of the items below? Thanks.
1. TPEWIQRLTIIQHGI [Peptide 89.0030]
2. CWMIDSESRPRFREL [Peptide 9014.0225]
3. ETEYVEPLTPSGAMP [Peptide 9014.0148]
4. KHIRLLECVLMYKARE [Peptide 1601.44]

6.17
6.34
7.64
6.92

Hey, can you go through the list below and give me pIC50 for every item?
1. LKAICIEKQSRAAKR [Peptide 90.0032]
2. CIHSTATDLRTLQQM [Peptide 1543.45]
3. TNCMLIQPPKLRSTA [89,0046]
4. DMKLRLAASPETHLD [Peptide 9014.0115]
5. MNYVVWDSIYYITET [Peptide 90.0214]
6. KEILDEAYLMAGVGS [Peptide 9014.0170]
7. KYFGSLAFLPESFDGDPA [Peptide 9014.0237]

[6.59, 6.35, 7.77, 7.33, 5.58, 6.01, 6.02]

// batch mode: one pIC50 value per listed entry
1. LYCYEQLSDSSDEDE [Peptide 1543.13]
2. NCILLYGPANTGKSY [Peptide 89.0087]

1. 5.25
2. 6.96

# per-item lookup of pIC50; items listed below
1. QSTQVDIRILQELLM [Peptide 1543.11]
2. PMAVSKAKACQAIEL [Peptide 90.0013]
3. QHSFNDDIFDLSEMI [Peptide 90.0152]
4. HCTLYTAVSSTWHWT [Peptide 89.0157]
5. GKSYFGMSLISFLQG [Peptide 89.0056]

1. 6.26
2. 7.05
3. 7.38
4. 5.54
5. 6.77

Please state pIC50 for every sequence in the list that follows.
1. LIQLKCPPILLTTNI [Peptide 89.0038]
2. EDEIDTDLDGFIDDS [Peptide 90.0126]

1: 7.82; 2: 6.49

====

# TARGET_SYSTEM: HLA-A3.2 (A*0301) (Homo sapiens, UniProt P04439)
# ASSAY_METHOD_TEXT: biochemical
# Type: binding
No end group written: not given here.
METRIC_NAME: log10(IC50) (log10 of the value in nM)
Recall that a logarithmic scale is used here: each number is log10 of IC50 in nM.

Batch of 7 sequences: report log10(IC50) for each.
1. TVQVYFDGNK [Peptide 88.0202]
2. QLALEALNK [Peptide 88.0424]
3. KAILGQVVR [Peptide 9017.0092]
4. HLFWYSWYK [Peptide 76.0168]
5. VSIEWRKRR [Peptide 9017.0090]
6. IMCLRFLSK [Peptide 1571.12]
7. QQMFLGTVK [Peptide 88.0415]

1. 3.05
2. 2.22
3. 4.19
4. 0.81
5. 3.42
6. 1.04
7. 3.31

====

For each entry below, report its IC50 value.
# TARGET_SYSTEM: A*0206 (Homo sapiens, UniProt P04439, D140Y/D185E/D98H/E176V/E277Q/F33Y/G131W/G231S/I119V/I121R/I166T/I218V/L300P/L318F/N151K/N90K/P208A/P217A/Q86G/Q94H/R138H/R169H/T345S)
# ASSAY_METHOD_TEXT: biochemical
# Assay type: binding
No end group written: not given here.
Could you write the number and then its unit?

Batch request: IC50 for each of the following sequences.
1. GLNRTTVTV [Peptide 9013.0066]
2. LLIESTPFNV [Peptide 9013.0128]
3. QQIEFITFL [Peptide 1578.10]
4. VVWDSIYYI [Peptide 1578.53]
5. GLFRVYPEL [Peptide 9013.0039]
6. LLLTASLLV [Peptide 9013.0002]
7. IVNTTYLWWV [Peptide 9013.0196]

["4730 nM", "62 nM", "45 nM", "11 nM", "1420 nM", "79 nM", "91 nM"]
